Assay procedure: LNP hydrodynamic diameter and polydispersity index by dynamic light scattering (DLS)
Format: physicochemical
Condition info: LNP: 47.5% ionizable lipid, 40% cholesterol, 2.5% PEG-2000 DMG, 10% DPSC, N/P 4-8
Readout name: Mean PDI

Problem: Please give measured Mean PDI of the following entry: CC/C=C\CCCCOC(CCC(=O)OCC(COC(=O)CCCCCCC/C=C\C/C=C\CCCCC)(COC(=O)CCCCCCC/C=C\C/C=C\CCCCC)COC(=O)OCCCN(CC)CC)OCCCC/C=C\CC [Compound 7-67]
Solution: 0.18

Problem: State its Mean PDI for this molecule: CC/C=C\CCCCOC(CCC(=O)OCC(COC(=O)CCCCCCOC(=O)C(CCCC)CCCCCC)(COC(=O)CCCCCCOC(=O)C(CCCC)CCCCCC)COC(=O)OCC1CCCN(CC)C1)OCCCC/C=C\CC (stereo not drawn) [Compound 7-59]
Solution: 0.15

Problem: Please supply the value of reported Mean PDI for the item CC/C=C\CCCCOC(CCC(=O)OCC(COC(=O)CCCCCCCOC(=O)C(CCCC)CCCCCC)(COC(=O)CCCCCCCOC(=O)C(CCCC)CCCCCC)COC(=O)NCCN1CCCC1)OCCCC/C=C\CC (stereo not drawn) [Compound 7-66]
Solution: 0.12

----------
Hi there, I'd appreciate the recorded Mean Diameter (nm) for every entry that follows.
Assay procedure: LNP hydrodynamic diameter and polydispersity index by dynamic light scattering (DLS)
Format: physicochemical
Condition info: LNP: 47.5% ionizable lipid, 40% cholesterol, 2.5% PEG-2000 DMG, 10% DPSC, N/P 4-8
# value in nm; strip the unit string

Problem: Look up Mean Diameter (nm) of CC/C=C\CCCCOC(CCC(=O)OCC(COC(=O)CCCCCCC/C=C\C/C=C\CCCCC)(COC(=O)CCCCCCC/C=C\C/C=C\CCCCC)COC(=O)NCCN1CCCC1)OCCCC/C=C\CC and report it.
Solution: 88.8

Problem: Name the recorded Mean Diameter (nm) of the item CCCCC/C=C\CCOC(=O)CCCCCC(=O)OCC(COC(=O)CCCCCC(=O)OCC/C=C\CCCCC)(COC(=O)CC12CC3CC(CC(C3)C1)C2)COC(=O)OCCCN(CC)CC in your answer.
Solution: 123.1

Problem: Determine from records and report Mean Diameter (nm) for CC/C=C\CCCCOC(CCC(=O)OCC(COC(=O)CCCCCCCOC(=O)C(CCCC)CCCCCC)(COC(=O)CCCCCCCOC(=O)C(CCCC)CCCCCC)COC(=O)OCCCN(C)CC)OCCCC/C=C\CC (stereo not shown)
Solution: 79.6

Problem: Quote Mean Diameter (nm) reported for CCCCC/C=C\CCOC(=O)CCCCCC(=O)OCC(COC(=O)CCCCCC(=O)OCC/C=C\CCCCC)(COC(=O)CCCCCC(=O)OCC/C=C\CCCCC)COC(=O)CCCN1CCCC1 please.
Solution: 126.0

Problem: Fill in Mean Diameter (nm) for record CC/C=C\CCCCOC(=O)CCCCCCC(=O)OCC(COC(=O)CCCCCCC(=O)OCCCC/C=C\CC)(COC(=O)CCCCCCC(=O)OCCCC/C=C\CC)COC(=O)NCCN1CCCC1
Solution: 153.0

Problem: Give Mean Diameter (nm) for the following compound: CC/C=C\CCCCOC(CCC(=O)OCC(COC(=O)CCCCCCOC(=O)C(CCCC)CCCCCC)(COC(=O)CCCCCCOC(=O)C(CCCC)CCCCCC)COC(=O)OCC1CCCN(CC)C1)OCCCC/C=C\CC (stereo not shown)
Solution: 82.4

Problem: Provide measured Mean Diameter (nm) value, entry: CC/C=C\CCCCOC(CCC(=O)OCC(COC(=O)CCCCCOC(=O)C(CCCC)CCCCCC)(COC(=O)CCCCCOC(=O)C(CCCC)CCCCCC)COC(=O)NCCN1CCCC1)OCCCC/C=C\CC (stereo not shown)
Solution: 82.1

Problem: Name the recorded Mean Diameter (nm) of the compound listed here: CC/C=C\CCCCOC(CCC(=O)OCC(COC(=O)CCCCCCCOC(=O)C(CCCC)CCCCCC)(COC(=O)CCCCCCCOC(=O)C(CCCC)CCCCCC)COC(=O)NCCN1CCCC1)OCCCC/C=C\CC (stereo not shown)
Solution: 87.2

Problem: Look up and state reported Mean Diameter (nm) for CC/C=C\CCCCOC(CCC(=O)OCC(COC(=O)CCCCCCCOC(=O)C(CCCC)CCCCCC)(COC(=O)CCCCCCCOC(=O)C(CCCC)CCCCCC)COC(=O)OCCCN(CC)CC)OCCCC/C=C\CC (stereo not shown)
Solution: 81.0

Problem: Look up Mean Diameter (nm) of CC/C=C\CCCCOC(CCC(=O)OCC(COC(=O)CCCCCCCOC(=O)C(CCCC)CCCCCC)(COC(=O)CCCCCCCOC(=O)C(CCCC)CCCCCC)COC(=O)OCC1CCCN(CC)C1)OCCCC/C=C\CC (stereo not shown) and report it.
Solution: 86.6

Problem: Answer with the recorded Mean Diameter (nm) of CCCCC/C=C\CCOC(=O)CCCCCC(=O)OCC(COC(=O)CCCCCC(=O)OCC/C=C\CCCCC)(COC(=O)CCCN1CCCC1)COC(=O)CC12CC3CC(CC(C3)C1)C2 only.
Solution: 157.7

Problem: Write down Mean Diameter (nm) measured for item CC/C=C\CCCCOC(CCC(=O)OCC(COC(=O)CCCCCOC(=O)C(CCCC)CCCCCC)(COC(=O)CCCCCOC(=O)C(CCCC)CCCCCC)COC(=O)OCCCN(C)CC)OCCCC/C=C\CC (stereo not shown)
Solution: 76.1

Problem: Give the value of Mean Diameter (nm) reported for the following: CCCCC/C=C\CCOC(=O)CCCC(=O)OCC(COC(=O)CCCC(=O)OCC/C=C\CCCCC)(COC(=O)CCCC(=O)OCC/C=C\CCCCC)COC(=O)OCCCN(CC)CC
Solution: 119.7

Problem: Please list Mean Diameter (nm) recorded for the compound CC/C=C\CCCCOC(CCC(=O)OCC(COC(=O)CCCCCCC/C=C\C/C=C\CCCCC)(COC(=O)CCCCCCC/C=C\C/C=C\CCCCC)COC(=O)OCCCN(C)CC)OCCCC/C=C\CC
Solution: 86.1

Problem: Specify Mean Diameter (nm) for CC/C=C\CCCCOC(CCC(=O)OCC(COC(=O)CCCCCOC(=O)C(CCCC)CCCCCC)(COC(=O)CCCCCOC(=O)C(CCCC)CCCCCC)COC(=O)OCCCN(CC)CC)OCCCC/C=C\CC (stereo not shown) and stop.
Solution: 80.1

Problem: Tell me Mean Diameter (nm) reported for CC/C=C\CCCCOC(CCC(=O)OCC(COC(=O)CCCCCCOC(=O)C(CCCC)CCCCCC)(COC(=O)CCCCCCOC(=O)C(CCCC)CCCCCC)COC(=O)NCCN1CCCC1)OCCCC/C=C\CC (stereo not shown)
Solution: 82.3

Problem: Please list Mean Diameter (nm) recorded for the compound CC/C=C\CCCCOC(CCC(=O)OCC(COC(=O)CCCCCOC(=O)C(CCCC)CCCCCC)(COC(=O)CCCCCOC(=O)C(CCCC)CCCCCC)COC(=O)OCC1CCCN(CC)C1)OCCCC/C=C\CC (stereo not shown)
Solution: 77.7

Problem: Quote Mean Diameter (nm) reported for CCCCC/C=C\CCOC(=O)CCCCCCC(=O)OCC(COC(=O)CCCCCCC(=O)OCC/C=C\CCCCC)(COC(=O)CCCCCCC(=O)OCC/C=C\CCCCC)COC(=O)NCCN1CCCC1 please.
Solution: 108.5

Problem: Return the recorded Mean Diameter (nm) value; entry: CC/C=C\CCCCOC(CCC(=O)OCC(COC(=O)CCCCCCOC(=O)C(CCCC)CCCCCC)(COC(=O)CCCCCCOC(=O)C(CCCC)CCCCCC)COC(=O)OCCCN(CC)CC)OCCCC/C=C\CC (stereo not shown)
Solution: 78.2
